readoutKind: melting point

Known results for compounds:
compoundStructureString | reported
CCn1c(Oc2ccc3cc[nH]c3c2)nnc1[C@@H](C)NS(=O)(=O)c1ccc(Cl)c(Cl)c1 | 223 to 224 °C
CCn1c(Oc2ccc(F)c(C)c2)nnc1[C@@H](C)NS(=O)(=O)c1ccc(Cl)c(Cl)c1 | 145 to 147 °C
CCn1c(Oc2cccc(N3CCN(C)CC3)c2)nnc1[C@@H](C)NS(=O)(=O)c1ccc(C(F)(F)F)cc1 | 183 to 184 °C
CCn1c(Oc2cccc(C)n2)nnc1[C@@H](C)NS(=O)(=O)c1ccc(Cl)c(Cl)c1 | 126 to 135 °C
CCCCc1ccc(Oc2nnc([C@@H](C)NS(=O)(=O)c3ccc(Cl)c(Cl)c3)n2CC)cc1 | 147 to 148 °C
CCn1c(Oc2cccc(N3CCN(C)CC3)c2)nnc1[C@@H](C)NS(=O)(=O)c1ccc2c(Cl)cccc2c1 | 211.5 to 216.5 °C
CCn1c(Oc2cccc(C(=O)O)c2)nnc1[C@@H](C)NS(=O)(=O)c1ccc(Cl)c(Cl)c1 | 183 to 185 °C
CCn1c(Oc2cc(C)cc(C)c2)nnc1[C@@H](C)NS(=O)(=O)c1ccc(Cl)c(Cl)c1 | 145 to 150 °C
CCn1c(Oc2cc(C(F)(F)F)n(C)n2)nnc1[C@@H](C)NS(=O)(=O)c1ccc(Cl)c(Cl)c1 | 123 to 127 °C
CCn1c(Oc2cccc(N3CCN(C(C)C)CC3)c2)nnc1[C@@H](C)NS(=O)(=O)c1ccc2c(Cl)cccc2c1 | 210 to 217 °C

For this compound ( CCn1c(Oc2cccc3ccccc23)nnc1[C@@H](C)NS(=O)(=O)c1ccc(Cl)c(Cl)c1 ), measured melting point is 166 to 170 °C

For this compound ( CCn1c(Oc2ccc(Cl)c(Cl)c2)nnc1[C@@H](C)NS(=O)(=O)c1ccc(Cl)c(Cl)c1 ), measured melting point is 152 to 156 °C

For this compound ( CCn1c(Oc2cc(C(C)C)n(C)n2)nnc1[C@@H](C)NS(=O)(=O)c1ccc(Cl)c(Cl)c1 ), measured melting point is 103 to 105.5 °C

For this compound ( CCn1c(Oc2cccc(OCCN(C)C)c2)nnc1[C@@H](C)NS(=O)(=O)c1ccc(Cl)c(Cl)c1 ), measured melting point is 132 to 134 °C

For this compound ( CCn1c(Oc2ccc(C)cn2)nnc1[C@@H](C)NS(=O)(=O)c1ccc(Cl)c(Cl)c1 ), measured melting point is 182 to 188 °C

* * *

- system: human Edg-1 (S1P1) (Homo sapiens)
- Construct: expressed in transfected cells; host or cells: HEK-293
- testSummary: S1P1 binding assay: inhibition of [33P]-S1P binding to membrane fraction of HEK-293 cells transferred with the human Edg-1 (S1P1) gene
- conditionNotes: test compound at 10 μM; inhibition of [33P]-S1P binding to the membrane fraction of HEK-293 cells expressing human Edg-1 (S1P1)
readoutKind: inhibition at 10 µM (%)

compoundStructureString | inhibition at 10 µM [%]
CCn1c(Oc2ccc(F)cc2)nnc1[C@@H](C)NS(=O)(=O)c1ccc(C(F)(F)F)cc1Br | 73
CCn1c(Oc2ccc(F)cc2)nnc1[C@@H](C)NS(=O)(=O)c1cc(C)ccc1OC | 69.2
CCn1c(Oc2ccc(F)c(Cl)c2)nnc1[C@@H](C)NS(=O)(=O)c1ccc(Cl)c(Cl)c1 | 101
CCn1c(Oc2ccc3cc[nH]c3c2)nnc1[C@@H](C)NS(=O)(=O)c1ccc(Br)c(Br)c1 | 73.6
CCn1c(Oc2cc3nc(C)cc(C)n3n2)nnc1[C@@H](C)NS(=O)(=O)c1ccc(Cl)c(Cl)c1 | 78.7
CCn1c(Oc2ccc(F)cc2)nnc1[C@@H](C)NS(=O)(=O)c1cc(C(F)(F)F)ccc1Cl | 59
CCn1c(Oc2ccc(F)cc2)nnc1[C@@H](C)NS(=O)(=O)c1ccc(Cl)cc1Cl | 80.4

* * *

- system: human Edg-1 (S1P1) (Homo sapiens, UniProt P21453)
- Construct: expressed in transfected cells; host or cells: HEK-293
- Sequence (P21453 whole entry): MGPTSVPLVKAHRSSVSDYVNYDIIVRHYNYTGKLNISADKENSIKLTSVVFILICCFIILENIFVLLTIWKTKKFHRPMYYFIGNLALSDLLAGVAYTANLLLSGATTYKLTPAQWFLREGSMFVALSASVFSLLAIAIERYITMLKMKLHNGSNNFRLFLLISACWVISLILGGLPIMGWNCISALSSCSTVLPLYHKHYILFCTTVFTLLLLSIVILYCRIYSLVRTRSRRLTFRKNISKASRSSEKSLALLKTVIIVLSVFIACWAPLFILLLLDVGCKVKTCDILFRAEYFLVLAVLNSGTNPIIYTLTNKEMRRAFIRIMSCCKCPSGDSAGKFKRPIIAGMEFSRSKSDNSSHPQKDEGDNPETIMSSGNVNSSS
- testSummary: S1P1 binding assay: inhibition of [33P]-S1P binding to membrane fraction of HEK-293 cells transferred with the human Edg-1 (S1P1) gene
- conditionNotes: test compound at 10 μM; inhibition of [33P]-S1P binding to the membrane fraction of HEK-293 cells expressing human Edg-1 (S1P1)
readoutKind: inhibition at 10 µM (%)

compoundStructureString | inhibition at 10 µM, %
CCn1c(Oc2ccc(F)cc2)nnc1[C@@H](C)NS(=O)(=O)c1cccc2ccccc12 | 83
C[C@@H](NS(=O)(=O)c1ccc(Cl)c(Cl)c1)c1nnc(Oc2ccc3cc[nH]c3c2)n1C1CC1 | 94.3
CCn1c(Oc2ccc3cc[nH]c3c2)nnc1[C@@H](C)NS(=O)(=O)c1ccc(F)cc1 | 89.2
CCn1c(Oc2ccc(F)cc2)nnc1[C@@H](C)NS(=O)(=O)c1ccc(I)cc1 | 109

* * *

- system: human Edg-1 (S1P1) (Homo sapiens)
- Construct: expressed in transfected cells; host or cells: HEK-293
- testSummary: S1P1 binding assay: inhibition of [33P]-S1P binding to membrane fraction of HEK-293 cells transferred with the human Edg-1 (S1P1) gene
- conditionNotes: test compound 10 μM; inhibition of [33P]-S1P binding, membrane fraction
readoutKind: inhibition at 10 µM (%)

Known results for molecules:
compoundStructureString | endpointUnit | inhibition at 10 µM
CCn1c(Oc2cccc(N3CCN(C)CC3)c2)nnc1[C@@H](C)NS(=O)(=O)c1ccc2c(S(C)(=O)=O)cccc2c1 | % | 97.7
CCn1c(Oc2cccc(N3CCN(C)CC3)c2)nnc1[C@@H](C)NS(=O)(=O)c1cc(C(F)(F)F)ccc1Br | % | 63.9

[A] CCn1c(Oc2cccc(N3CCN(C)CC3)c2)nnc1[C@@H](C)NS(=O)(=O)c1cc(OC)ccc1OC
[B] CCn1c(Oc2ccc3cc[nH]c3c2)nnc1[C@@H](C)NS(=O)(=O)c1ccsc1
Ask: Which one would you say has the larger inhibition at 10 µM value: A , or B ? Let me know the label of the one you choose.
Result: A

* * *

- system: human Edg-1 (S1P1) (Homo sapiens, UniProt P21453)
- Construct: expressed in transfected cells; host or cells: HEK-293
- testSummary: S1P1 binding assay: inhibition of [33P]-S1P binding to membrane fraction of HEK-293 cells transferred with the human Edg-1 (S1P1) gene
- conditionNotes: test compound 10 μM; inhibition of [33P]-S1P binding, membrane fraction
readoutKind: inhibition at 10 µM (%)

compoundStructureString | system | inhibition at 10 µM (%)
CCn1c(Oc2cccc(N3CCN(C)CC3)c2)nnc1[C@@H](C)NS(=O)(=O)c1ccc2c(c1)CCC(C)(C)O2 | human Edg-1 (S1P1) (Homo sapiens, UniProt P21453) | 62
CCn1c(Oc2cccc(N3CCN(C)CC3)c2)nnc1[C@@H](C)NS(=O)(=O)c1ccc2c(c1)CCN2C(C)=O | human Edg-1 (S1P1) (Homo sapiens, UniProt P21453) | 60.8
CCn1c(Oc2ccc3cc[nH]c3c2)nnc1[C@@H](C)NS(=O)(=O)c1cc(Br)c(F)cc1F | human Edg-1 (S1P1) (Homo sapiens, UniProt P21453) | 83.2
CCn1c(Oc2cccc(N3CCN(C)CC3)c2)nnc1[C@@H](C)NS(=O)(=O)c1ccc(-c2cnco2)s1 | human Edg-1 (S1P1) (Homo sapiens, UniProt P21453) | 85.7

* * *

- system: human Edg-1 (S1P1) (Homo sapiens, UniProt P21453)
- Construct: expressed in transfected cells; host or cells: HEK-293
- testSummary: S1P1 binding assay: inhibition of [33P]-S1P binding to membrane fraction of HEK-293 cells transferred with the human Edg-1 (S1P1) gene
- conditionNotes: test compound 10 μM; inhibition of [33P]-S1P binding, membrane fraction
readoutKind: inhibition at 10 µM (%)

Known results for molecules:
compoundStructureString | system | inhibition at 10 µM (%)
CCn1c(Oc2cccc(N3CCN(C)CC3)c2)nnc1[C@@H](C)NS(=O)(=O)c1cccc(Br)c1 | human Edg-1 (S1P1) (Homo sapiens, UniProt P21453) | 116
CCn1c(Oc2cccc(N3CCN(C)CC3)c2)nnc1[C@@H](C)NS(=O)(=O)c1c(C)cc(OC)c(C)c1C | human Edg-1 (S1P1) (Homo sapiens, UniProt P21453) | 64.8
CCn1c(Oc2ccc3cc[nH]c3c2)nnc1[C@@H](C)NS(=O)(=O)c1cccc(Cl)c1F | human Edg-1 (S1P1) (Homo sapiens, UniProt P21453) | 68.9
CCn1c(Oc2ccc3cc[nH]c3c2)nnc1[C@@H](C)NS(=O)(=O)CC1CCCCC1 | human Edg-1 (S1P1) (Homo sapiens, UniProt P21453) | 83.8
CCn1c(Oc2ccc3cc[nH]c3c2)nnc1[C@@H](C)NS(=O)(=O)c1cc(Cl)ccc1F | human Edg-1 (S1P1) (Homo sapiens, UniProt P21453) | 75.8

[I] CCn1c(Oc2cccc(N3CCN(C)CC3)c2)nnc1[C@@H](C)NS(=O)(=O)c1ccccc1OC
[II] CCc1ccc(OC)c(S(=O)(=O)N[C@H](C)c2nnc(Oc3cccc(N4CCN(C)CC4)c3)n2CC)c1
Ask: Given the listed items, does I or II have the lesser reported inhibition at 10 µM? Let me know the label of the one you choose.
Result: I
(I: 61.1%, II: 91.9%)
